Each recorded value in this set is attributed to patent US12227495B2.

# Tested on: Solanum nigrum (SOLNI)
# experiment-description: Post-emergence herbicide test, glasshouse, percentage damage
# Format: in vivo
# condition-parameters: 1000 g/ha, evaluated after 13 days
experimental-endpoint: percentage damage caused to the plant, SOLNI

                            chemical_string  value_measured
0  N#Cc1ccnc(Oc2cccc(Br)c2-c2cc(C(F)F)no2)c1    4 (4=61-80%)
1  FC(F)c1cc(-c2c(Cl)cccc2Oc2ccc(C(F)(F)F)cn2)on1   5 (5=81-100%)
2  Fc1cc(Cl)cnc1Oc1cccc(F)c1-c1cc(C(F)F)on1   5 (5=81-100%)
3       N#Cc1cnn(-c2ccccc2Oc2ncc(Cl)cc2F)c1   5 (5=81-100%)
4  N#Cc1cc(Cl)cnc1Oc1cccc(F)c1-c1cc(C(F)F)no1   5 (5=81-100%)
5  Fc1cc(C(F)(F)F)cnc1Oc1cccc(Br)c1-c1cc(C(F)F)no1   5 (5=81-100%)
6  Fc1cccc(Oc2cc(OC(F)(F)F)ccn2)c1-c1cc(C(F)F)no1    3 (3=41-60%)
7  O=[N+]([O-])c1cccc(Oc2ncc(Cl)cc2F)c1-n1cc(C(F)(F)F)cn1   5 (5=81-100%)
8  Fc1cccc(Oc2nc(Cl)ccc2C(F)(F)F)c1-c1cc(C(F)F)no1   5 (5=81-100%)

---

# System: Echinochloa crus-galli (ECHCG)
# experiment-description: Pre-emergence herbicide test, glasshouse, percentage damage
# Type: in vivo
# condition-parameters: rate 500 g/ha, evaluated after 13 days
experimental-endpoint: Pre-emergence Test ECHCG percentage damage (five point scale)

>>> print(df.to_string())
                            chemical_string  value_measured
0  Fc1cc(Cl)cnc1Oc1cccc(F)c1-c1ncc(C(F)(F)F)o1    3 (3=41-60%)
1  O=[N+]([O-])c1ccc(Oc2cccc(F)c2-c2cc(C(F)F)no2)nc1   5 (5=81-100%)
2  Fc1cccc(Oc2ccc(C(F)(F)F)cn2)c1-c1cc(C(F)F)no1    4 (4=61-80%)
3  Fc1cccc(Oc2cc(C(F)(F)F)ccn2)c1-c1cc(C(F)F)no1    2 (2=21-40%)
4  Fc1cc(Cl)cnc1Oc1cccc(F)c1-c1cc(C(F)F)no1   5 (5=81-100%)
5  Fc1cccc(Oc2ncc(Cl)cc2Cl)c1-c1cc(C(F)F)no1    2 (2=21-40%)
6   Fc1cccc(Oc2ccc(Cl)cn2)c1-c1cc(C(F)F)no1   5 (5=81-100%)
7    Fc1cccc(Oc2cccc(F)c2-c2cc(C(F)F)no2)n1    4 (4=61-80%)
8  N#Cc1ccc(Oc2cccc(F)c2-c2cc(C(F)F)no2)nc1   5 (5=81-100%)
9  Fc1cnc(Oc2cccc(F)c2-c2cc(C(F)F)no2)c(F)c1   5 (5=81-100%)

---

# maps each entry to its Pre-emergence Test IPOHE percentage damage (five point scale)
# System: Ipomoea hederacea (IPOHE)
# experiment-description: Pre-emergence herbicide test, glasshouse, percentage damage
# Format: in vivo
# condition-parameters: rate 250 g/ha, evaluated after 13 days
experimental-endpoint: Pre-emergence Test IPOHE percentage damage (five point scale)

>>> print(df.to_string())
                            chemical_string  value_measured
0         Cc1noc(-c2ccccc2Oc2ncc(Cl)cc2F)n1     1 (1=0-20%)
1  Fc1cccc(Oc2ccc(C(F)F)cn2)c1-c1cc(C(F)F)no1     1 (1=0-20%)
2     Fc1cc(Cl)cnc1Oc1ccccc1-n1cc(C(F)F)nn1   5 (5=81-100%)
3  Fc1cnc(Oc2ccccc2-n2cc(C(F)(F)F)cn2)c(F)c1     1 (1=0-20%)
4        Fc1cc(Cl)cnc1Oc1ccccc1-n1cc(Br)cn1     1 (1=0-20%)
5  Fc1cc(Cl)cnc1Oc1cccc(Cl)c1-c1cc(C(F)F)no1    3 (3=41-60%)
6  FC(F)c1cc(-c2c(Br)cccc2Oc2ccc(Cl)cn2)on1     1 (1=0-20%)
7     Fc1cc(Cl)cnc1Oc1ccccc1-c1cc(C(F)F)on1     1 (1=0-20%)
